- MEASURED ON: Human HER3, endogenous, on human cancer cell lines (SK-Br-3, MCF7, BT-474) (human, UniProt P21860 20-1342)
- Sequence (P21860 20-1342): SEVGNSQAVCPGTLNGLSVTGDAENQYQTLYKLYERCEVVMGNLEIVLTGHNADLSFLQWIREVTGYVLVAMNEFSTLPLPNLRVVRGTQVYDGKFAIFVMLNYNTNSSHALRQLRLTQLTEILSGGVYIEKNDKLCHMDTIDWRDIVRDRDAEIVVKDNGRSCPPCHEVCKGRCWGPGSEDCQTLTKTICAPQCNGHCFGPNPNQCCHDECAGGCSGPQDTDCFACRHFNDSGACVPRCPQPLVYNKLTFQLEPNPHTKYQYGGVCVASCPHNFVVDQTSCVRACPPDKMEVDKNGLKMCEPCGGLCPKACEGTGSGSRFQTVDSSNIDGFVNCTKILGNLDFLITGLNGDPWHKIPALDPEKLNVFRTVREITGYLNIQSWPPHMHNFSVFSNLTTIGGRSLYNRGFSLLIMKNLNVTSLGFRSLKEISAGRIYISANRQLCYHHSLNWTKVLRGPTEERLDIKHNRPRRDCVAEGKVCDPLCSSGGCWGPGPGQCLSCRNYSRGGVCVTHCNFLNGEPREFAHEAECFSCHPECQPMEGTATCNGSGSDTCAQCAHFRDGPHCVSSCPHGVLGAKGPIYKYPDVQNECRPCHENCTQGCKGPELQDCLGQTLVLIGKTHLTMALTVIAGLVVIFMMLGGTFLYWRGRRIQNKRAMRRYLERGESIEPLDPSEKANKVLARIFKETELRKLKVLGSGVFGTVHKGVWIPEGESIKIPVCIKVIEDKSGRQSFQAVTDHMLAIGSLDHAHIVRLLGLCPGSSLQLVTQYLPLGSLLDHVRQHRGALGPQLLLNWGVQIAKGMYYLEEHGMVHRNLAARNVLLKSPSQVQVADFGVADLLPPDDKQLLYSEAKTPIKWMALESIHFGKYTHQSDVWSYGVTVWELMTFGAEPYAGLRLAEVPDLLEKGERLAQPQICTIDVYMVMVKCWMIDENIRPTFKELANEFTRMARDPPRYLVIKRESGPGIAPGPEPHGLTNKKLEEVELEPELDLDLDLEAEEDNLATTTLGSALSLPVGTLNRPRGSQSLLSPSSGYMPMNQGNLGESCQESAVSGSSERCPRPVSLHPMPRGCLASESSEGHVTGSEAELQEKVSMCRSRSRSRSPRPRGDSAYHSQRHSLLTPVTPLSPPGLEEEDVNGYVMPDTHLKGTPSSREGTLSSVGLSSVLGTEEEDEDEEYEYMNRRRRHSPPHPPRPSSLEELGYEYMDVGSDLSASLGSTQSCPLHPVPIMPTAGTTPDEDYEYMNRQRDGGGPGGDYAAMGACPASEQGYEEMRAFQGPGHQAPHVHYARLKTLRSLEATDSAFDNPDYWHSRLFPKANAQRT
- EXPERIMENT: cell-based or functional assay
OBSERVABLE: SK-Br-3 proliferation IC50 (nM)
Answers are plain numbers, in nM.

**Q:** Report measured SK-Br-3 proliferation IC50; entry is MOR12925 (antibody, human IgG1, kappa, V domains shown, tested as IgG) VH: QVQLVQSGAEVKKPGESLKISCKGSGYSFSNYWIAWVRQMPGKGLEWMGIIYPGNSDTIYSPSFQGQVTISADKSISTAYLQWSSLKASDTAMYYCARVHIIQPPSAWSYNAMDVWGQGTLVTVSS VL: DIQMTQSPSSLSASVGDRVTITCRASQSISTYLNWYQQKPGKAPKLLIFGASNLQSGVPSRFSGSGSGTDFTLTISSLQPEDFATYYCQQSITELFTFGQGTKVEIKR
**A:** 0.101
